- system_tested: p97-C10 peptide
- assay: Fluorescence anisotropy, UBXD1-PUB constructs titrated to 5,6-FAM labeled p97-C10 peptide
- Assay type: binding
- test_parameters: UBXD1-PUB (150–264) mutants titrated to 5,6-FAM labeled p97-C10 peptide (100 nM); 50 mM NaKPi, pH 6.5, 25 °C; fluorescence anisotropy ex 495/em 518 nm; fit of averaged triplicates ± standard deviation of the fit
Measured Kd of individual entries

Reference set (2 entries):
molecule | Kd
N201A: UBXD1-PUB point mutant (protein, left off: His6, N-terminal, cleaved, UBXD1-PUB point mutant) STDPVAASIMKIYTFNKDQDRVKLGVDTIAKYLDNIHLHPEEEKYRKIKLQAKVFQERINCLEGTHEFFEAIGFQKVLLPAQDQEDPEEFYVLSETTLAQPQSLERHKEQLLAAE | 64.1 µM
Q200A: UBXD1-PUB point mutant (protein, left off: His6, N-terminal, cleaved, UBXD1-PUB point mutant) STDPVAASIMKIYTFNKDQDRVKLGVDTIAKYLDNIHLHPEEEKYRKIKLANKVFQERINCLEGTHEFFEAIGFQKVLLPAQDQEDPEEFYVLSETTLAQPQSLERHKEQLLAAE | 8.3 µM

IN: Answer with the recorded Kd of N184D: UBXD1-PUB point mutant (protein, left off: His6, N-terminal, cleaved, UBXD1-PUB point mutant) STDPVAASIMKIYTFNKDQDRVKLGVDTIAKYLDDIHLHPEEEKYRKIKLQNKVFQERINCLEGTHEFFEAIGFQKVLLPAQDQEDPEEFYVLSETTLAQPQSLERHKEQLLAAE only.
OUT: 80 µM

IN: Answer with the recorded Kd of V203A: UBXD1-PUB point mutant (protein, left off: His6, N-terminal, cleaved, UBXD1-PUB point mutant) STDPVAASIMKIYTFNKDQDRVKLGVDTIAKYLDNIHLHPEEEKYRKIKLQNKAFQERINCLEGTHEFFEAIGFQKVLLPAQDQEDPEEFYVLSETTLAQPQSLERHKEQLLAAE only.
OUT: 25.3 µM

IN: Answer with the recorded Kd of K193E: UBXD1-PUB point mutant (protein, left off: His6, N-terminal, cleaved, UBXD1-PUB point mutant) STDPVAASIMKIYTFNKDQDRVKLGVDTIAKYLDNIHLHPEEEEYRKIKLQNKVFQERINCLEGTHEFFEAIGFQKVLLPAQDQEDPEEFYVLSETTLAQPQSLERHKEQLLAAE only.
OUT: 17.7 µM

IN: Answer with the recorded Kd of K198E: UBXD1-PUB point mutant (protein, left off: His6, N-terminal, cleaved, UBXD1-PUB point mutant) STDPVAASIMKIYTFNKDQDRVKLGVDTIAKYLDNIHLHPEEEKYRKIELQNKVFQERINCLEGTHEFFEAIGFQKVLLPAQDQEDPEEFYVLSETTLAQPQSLERHKEQLLAAE only.
OUT: 49.3 µM

IN: Answer with the recorded Kd of N184A: UBXD1-PUB point mutant (protein, left off: His6, N-terminal, cleaved, UBXD1-PUB point mutant) STDPVAASIMKIYTFNKDQDRVKLGVDTIAKYLDAIHLHPEEEKYRKIKLQNKVFQERINCLEGTHEFFEAIGFQKVLLPAQDQEDPEEFYVLSETTLAQPQSLERHKEQLLAAE only.
OUT: 28.7 µM

IN: Answer with the recorded Kd of Y181A: UBXD1-PUB point mutant (protein, left off: His6, N-terminal, cleaved, UBXD1-PUB point mutant) STDPVAASIMKIYTFNKDQDRVKLGVDTIAKALDNIHLHPEEEKYRKIKLQNKVFQERINCLEGTHEFFEAIGFQKVLLPAQDQEDPEEFYVLSETTLAQPQSLERHKEQLLAAE only.
OUT: 111 µM

IN: Answer with the recorded Kd of Y194A: UBXD1-PUB point mutant (protein, left off: His6, N-terminal, cleaved, UBXD1-PUB point mutant) STDPVAASIMKIYTFNKDQDRVKLGVDTIAKYLDNIHLHPEEEKARKIKLQNKVFQERINCLEGTHEFFEAIGFQKVLLPAQDQEDPEEFYVLSETTLAQPQSLERHKEQLLAAE only.
OUT: 53 µM

IN: Answer with the recorded Kd of E206R: UBXD1-PUB point mutant (protein, left off: His6, N-terminal, cleaved, UBXD1-PUB point mutant) STDPVAASIMKIYTFNKDQDRVKLGVDTIAKYLDNIHLHPEEEKYRKIKLQNKVFQRRINCLEGTHEFFEAIGFQKVLLPAQDQEDPEEFYVLSETTLAQPQSLERHKEQLLAAE only.
OUT: 39.4 µM

IN: Answer with the recorded Kd of Y194F: UBXD1-PUB point mutant (protein, left off: His6, N-terminal, cleaved, UBXD1-PUB point mutant) STDPVAASIMKIYTFNKDQDRVKLGVDTIAKYLDNIHLHPEEEKFRKIKLQNKVFQERINCLEGTHEFFEAIGFQKVLLPAQDQEDPEEFYVLSETTLAQPQSLERHKEQLLAAE only.
OUT: 141 µM

IN: Answer with the recorded Kd of wild type (wt): N-terminal hexahistidine-tagged UBXD1-PUB (150–264), tag cleaved with thrombin (protein, left off: His6, N-terminal, cleaved, N-terminal hexahistidine-tagged UBXD1-PUB (150–264), tag cleaved with thrombin) STDPVAASIMKIYTFNKDQDRVKLGVDTIAKYLDNIHLHPEEEKYRKIKLQNKVFQERINCLEGTHEFFEAIGFQKVLLPAQDQEDPEEFYVLSETTLAQPQSLERHKEQLLAAE only.
OUT: 13.8 µM
